Recorded melting point for the following compounds

Known melting point results, listed for orientation:
Data request: For `c1ccc2sc(C3CCNCC3)nc2c1` , what is its reported melting point?
Data returned: 127 to 129 °C

Data request: For `Cc1cc(C(=O)O)c(C)n1CC1CC1` , what is its reported melting point?
Data returned: 179 to 181 °C

More entries:
Data request: For Cc1ccc(C(C)C)c(OC(C)C(=O)O)c1 (stereo not drawn) , what is its reported melting point?
Data returned: 61 to 63 °C

====

Recorded melting point for the following compounds

Known melting point results, listed for orientation:
Data request: For `CC(=O)NCCc1ccc(C(=O)CCl)s1` , what is its reported melting point?
Data returned: 124 to 126 °C

Data request: For `CC(=O)c1c(C)[nH]c(C(=O)CCl)c1C` , what is its reported melting point?
Data returned: 170 to 180 °C

Data request: For `Nc1ccc(N2CCCCC2)c(S(=O)(=O)Nc2ccccc2Cl)c1` , what is its reported melting point?
Data returned: 146 to 148 °C

More entries:
Data request: For `COCCOc1ccc(C=O)cc1OC` , what is its reported melting point?
Data returned: 67 to 69 °C

Data request: For `O=c1[nH]c(CCl)nc2scc(-c3ccco3)c12` , what is its reported melting point?
Data returned: 230 to 232 °C

Data request: For `Cc1c(N)cccc1S(N)(=O)=O` , what is its reported melting point?
Data returned: 212 to 214 °C

Data request: For `CCOC(=O)c1c(C)[nH]c(C(C)=O)c1C` , what is its reported melting point?
Data returned: 115 to 117 °C

Data request: For `COc1cc(-c2ccccc2)sc1C(=O)O` , what is its reported melting point?
Data returned: 167 to 169 °C

Data request: For `COc1ccc(NS(=O)(=O)Cc2ccc(N)cc2)cc1` , what is its reported melting point?
Data returned: 153 to 155 °C

Data request: For `COCCn1c(N)c(NCc2ccccc2)c(=O)[nH]c1=O` , what is its reported melting point?
Data returned: 151 to 153 °C

Data request: For Cc1ccc(-c2nnc(C(C)Cl)o2)cc1 (stereo not drawn) , what is its reported melting point?
Data returned: < 17 °C

Data request: For `CCCCNC(=O)CC(N)=NO` , what is its reported melting point?
Data returned: 95 to 99 °C

Data request: For CC(C)CCNC(=O)C1CSCN1 (stereo not drawn) , what is its reported melting point?
Data returned: 162 to 164 °C

Data request: For `O=C(O)CCC(=O)N1CC(=O)Nc2ccccc21` , what is its reported melting point?
Data returned: 181 to 183 °C

====

Recorded melting point for the following compounds

Known melting point results, listed for orientation:
Data request: For `Clc1nccn2nnnc12` , what is its reported melting point?
Data returned: 99 to 101 °C

Data request: For `NS(=O)(=O)c1ccc(SCC(=O)O)cc1` , what is its reported melting point?
Data returned: 157 to 159 °C

Data request: For `Cc1ccc2c(C)cc(=O)[nH]c2c1` , what is its reported melting point?
Data returned: 209 to 211 °C

Data request: For `Cc1nc(S)oc1C` , what is its reported melting point?
Data returned: 132 to 134 °C

Data request: For `N#Cc1cc(N)ncc1Br` , what is its reported melting point?
Data returned: 184 to 186 °C

More entries:
Data request: For `Nc1ccc(N2CCN(C(=O)C3CC3)CC2)cn1` , what is its reported melting point?
Data returned: 153 to 155 °C

Data request: For `Nc1cccc(OCC(F)(F)F)c1` , what is its reported melting point?
Data returned: 34 to 36 °C

Data origin, for the record: a melting point compilation (Tetko et al.)
